Readings of residual activity for the listed molecules
# experimental.system: UniProt Q15746
# Sequence (Q15746 whole entry, looked up): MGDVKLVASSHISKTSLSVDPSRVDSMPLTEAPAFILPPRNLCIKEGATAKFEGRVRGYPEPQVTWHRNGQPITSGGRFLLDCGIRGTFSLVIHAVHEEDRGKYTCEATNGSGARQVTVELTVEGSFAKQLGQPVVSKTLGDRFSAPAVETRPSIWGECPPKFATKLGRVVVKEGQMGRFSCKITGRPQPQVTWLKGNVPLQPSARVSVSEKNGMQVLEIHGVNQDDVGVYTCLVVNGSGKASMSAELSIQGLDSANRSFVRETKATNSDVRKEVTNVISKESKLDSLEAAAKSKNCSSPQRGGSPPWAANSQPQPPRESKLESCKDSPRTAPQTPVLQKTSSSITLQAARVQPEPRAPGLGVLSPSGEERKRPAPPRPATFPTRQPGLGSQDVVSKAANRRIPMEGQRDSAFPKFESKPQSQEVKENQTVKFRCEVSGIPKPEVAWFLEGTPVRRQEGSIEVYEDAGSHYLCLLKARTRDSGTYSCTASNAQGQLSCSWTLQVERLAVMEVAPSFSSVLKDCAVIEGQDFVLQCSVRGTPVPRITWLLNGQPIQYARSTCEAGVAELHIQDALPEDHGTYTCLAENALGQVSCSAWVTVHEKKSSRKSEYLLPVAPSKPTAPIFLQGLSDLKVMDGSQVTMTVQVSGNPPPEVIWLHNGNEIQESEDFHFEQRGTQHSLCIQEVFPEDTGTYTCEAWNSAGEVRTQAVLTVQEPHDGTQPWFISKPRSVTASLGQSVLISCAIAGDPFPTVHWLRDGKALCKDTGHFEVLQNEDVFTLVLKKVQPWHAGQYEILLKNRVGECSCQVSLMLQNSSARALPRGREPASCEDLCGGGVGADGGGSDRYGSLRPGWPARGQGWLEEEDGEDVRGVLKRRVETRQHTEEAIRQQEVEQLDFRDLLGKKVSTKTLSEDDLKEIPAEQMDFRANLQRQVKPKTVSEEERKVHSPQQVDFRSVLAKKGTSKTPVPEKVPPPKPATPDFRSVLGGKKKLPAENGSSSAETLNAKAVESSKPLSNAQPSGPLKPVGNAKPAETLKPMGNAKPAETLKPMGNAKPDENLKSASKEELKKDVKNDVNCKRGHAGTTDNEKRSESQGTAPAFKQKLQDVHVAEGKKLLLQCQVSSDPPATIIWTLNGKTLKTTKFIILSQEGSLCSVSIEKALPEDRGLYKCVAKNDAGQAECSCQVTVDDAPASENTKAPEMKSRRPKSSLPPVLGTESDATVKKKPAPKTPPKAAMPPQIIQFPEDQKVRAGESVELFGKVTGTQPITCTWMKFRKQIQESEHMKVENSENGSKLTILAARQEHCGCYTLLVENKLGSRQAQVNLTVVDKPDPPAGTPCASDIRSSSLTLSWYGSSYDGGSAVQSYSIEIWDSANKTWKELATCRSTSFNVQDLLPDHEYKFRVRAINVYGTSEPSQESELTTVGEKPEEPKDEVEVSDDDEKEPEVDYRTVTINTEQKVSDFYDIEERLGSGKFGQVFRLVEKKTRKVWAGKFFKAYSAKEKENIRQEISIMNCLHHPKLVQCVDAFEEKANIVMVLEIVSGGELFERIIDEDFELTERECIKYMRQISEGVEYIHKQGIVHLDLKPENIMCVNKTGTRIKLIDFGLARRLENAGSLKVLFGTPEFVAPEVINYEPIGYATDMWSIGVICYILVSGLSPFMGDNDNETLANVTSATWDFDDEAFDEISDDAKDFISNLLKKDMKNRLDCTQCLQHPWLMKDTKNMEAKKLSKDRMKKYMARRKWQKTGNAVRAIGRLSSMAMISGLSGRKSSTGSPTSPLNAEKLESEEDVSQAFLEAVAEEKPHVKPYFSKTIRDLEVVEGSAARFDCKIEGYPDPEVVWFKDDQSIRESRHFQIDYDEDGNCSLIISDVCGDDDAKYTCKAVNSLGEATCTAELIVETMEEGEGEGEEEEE
# experiment: radiometric filter-binding kinase assay
# study.conditions: compound 1.0 µM
# number only, unit % dropped from output

molecule | endpoint.unit | residual activity
NC(=O)c1cc2c(-c3cccc(-c4ccccc4)c3)cnc(N)c2s1 | % | 53
CCn1c(-c2nonc2N)nc2cncc(CNC3CCNCC3)c21 | % | 110
O=c1c(O)c(-c2ccc(O)c(O)c2)oc2cc(O)c(O)c(O)c12 | % | 87
COc1ccc(N(C(=O)Nc2c(C)cccc2C)c2cc(Nc3ccc(N4CCN(C)CC4)cc3)ncn2)c(OC)c1 | % | 91
O=C(NCCCNc1nc(Nc2cccc(CN3CCOCC3)c2)ncc1C1CC1)C1CCC1 | % | 103
NC(=O)c1c(NC(=O)C2CC2)sc2c1CCCC2 | % | 96
Cc1cc(SCc2sc(-c3ccc(C(F)(F)F)cc3)nc2C)ccc1OCC(=O)O | % | 92
Cn1nc(Nc2ccc(F)cc2)c2c(N)ncnc21 | % | 94
Cc1cccc(Nc2nn(C)c3ncnc(N)c23)c1 | % | 93
c1ccc2c(-c3cnn4cc(-c5ccc(N6CCNCC6)cc5)cnc34)ccnc2c1 | % | 107

Measured residual activity for this entry "O=C(Nc1ccccc1-c1cn2c(CN3CCNCC3)csc2n1)c1cnc2ccccc2n1" on UniProt Q15746: 27

Measured residual activity for this entry "CC(C)(C#N)c1ccc(N2C(=O)OCc3cnc4ccc(-c5cnc6ccccc6c5)cc4c32)cc1" on UniProt Q15746: 87

Measured residual activity for this entry CC1=C(CO)C(=O)O[C@@H]([C@@H](C)[C@H]2CC[C@H]3[C@@H]4C[C@H]5O[C@]56[C@@H](O)C=CC(=O)[C@]6(C)C4CC[C@]23C)C1 (stereo partly drawn) on UniProt Q15746: 114
